- Tested Target: Anti-CD28 Fab (SEQ ID NOs: 202, 203)
- Sequence (VH, as listed by the source, chain 1 of 2): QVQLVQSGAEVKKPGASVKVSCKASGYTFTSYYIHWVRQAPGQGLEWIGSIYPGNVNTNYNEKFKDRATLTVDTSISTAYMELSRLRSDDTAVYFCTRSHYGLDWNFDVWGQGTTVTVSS
- Sequence (VL, as listed by the source, chain 2 of 2): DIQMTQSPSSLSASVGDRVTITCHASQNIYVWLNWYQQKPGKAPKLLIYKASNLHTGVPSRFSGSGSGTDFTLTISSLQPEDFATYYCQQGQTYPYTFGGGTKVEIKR
- Assay Protocol: phage binding ELISA on captured Fab;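 also: clonal phage supernatants added briefly to wells pre-incubated with CD28 antigen or with blocking buffer only, then washed, bound phage read by ELISA using HRP-coupled anti-M13 antibody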
Measure: Anti-CD28 Fab (SEQ ID NOs: 202, 203) signal

[[record]]
binder = "YCSGHLPMYMAKCL [Phage-853]"
recorded_measurement = 0.62

[[record]]
binder = "YCEGHAQMYMLKCL [Phage-851]"
recorded_measurement = 0.64

[[record]]
binder = "YCDGHEERYMAKCL [Phage-786]"
recorded_measurement = 0.94

[[record]]
binder = "YCDGHVLMYLAKCL [Phage-803]"
recorded_measurement = 0.9

